Origin of values: paper PMC6175093

format: in vivo, human; details: both, human, plasma, oral, AUC0‐24h, rosiglitazone 4 mg + SCY‐078 750 mg, day 3, n = 17; geometric mean (CV%)

molecule | AUC (µg·h/mL)
CN(CCOc1ccc(CC2SC(=O)NC2=O)cc1)c1ccccn1 (stereo not shown) [Rosiglitazone, rosiglitazone] | 1420

###

format: in vivo, human; settings: both, human, plasma, oral, AUC0‐last, rosiglitazone 4 mg + SCY‐078 750 mg, day 3, n = 17; geometric mean (CV%)

compound | AUC
CN(CCOc1ccc(CC2SC(=O)NC2=O)cc1)c1ccccn1 (stereo not shown) | 1440 µg·h/mL

###

assay type: in vivo, human; details: metabolite; rosiglitazone 4 mg + SCY‐078 750 mg, day 3, n = 17; geometric mean (CV%)

compound | AUC0‐24h / µg·h/mL
O=C1NC(=O)C(Cc2ccc(OCCNc3ccccn3)cc2)S1 (stereo not shown) | 1.31

###

assay: Phase 1 study: plasma PK of SCY‐078 after loading dose and repeat daily doses; assay type: in vivo, human; details: both, human, plasma, oral

smiles data | unit tag | Tmax
CC(C)[C@@H](C)[C@@]1(C)CC[C@]2(C)[C@H]3CC[C@@H]4[C@@]5(COC[C@@]4(C)[C@@H](OC[C@](C)(N)C(C)(C)C)[C@H](n4ncnc4-c4ccncc4)C5)C3=CC[C@@]2(C)[C@@H]1C(=O)O | h | 6

###

assay type: in vivo, human; settings: metabolite; rosiglitazone 4 mg alone, day 1, n = 17; geometric mean (CV%)

molecule | unit tag | AUC0‐last
O=C1NC(=O)C(Cc2ccc(OCCNc3ccccn3)cc2)S1 (stereo not shown) | ng·h/mL | 2170

###

test: Phase 1 study: plasma PK of SCY‐078 after loading dose and repeat daily doses; type: in vivo, human; settings: both, human, plasma, po, 1250 mg, Cmax, day 1, oral 1250‐mg loading dose, fasted; geometric mean (CV%)
quantity: Cmax (ng/mL)

smiles data | quantity | unit tag | val
CC(C)[C@@H](C)[C@@]1(C)CC[C@]2(C)[C@H]3CC[C@@H]4[C@@]5(COC[C@@]4(C)[C@@H](OC[C@](C)(N)C(C)(C)C)[C@H](n4ncnc4-c4ccncc4)C5)C3=CC[C@@]2(C)[C@@H]1C(=O)O | Cmax | ng/mL | 783

###

type: in vivo, human; conditions: metabolite; rosiglitazone 4 mg + SCY‐078 750 mg, day 3, n = 17; geometric mean (CV%)
quantity: AUC0‐last (ng·h/mL)

molecule | val
O=C1NC(=O)C(Cc2ccc(OCCNc3ccccn3)cc2)S1 (stereo not shown) [N‐Desmethylrosiglitazone, N‐desmethylrosiglitazone] | 2240

###

assay: Phase 1 study: plasma PK of SCY‐078 after loading dose and repeat daily doses; assay type: in vivo, human; conditions: both, human, plasma, po, 1250 mg
quantity: concentration at 24 h (ng/mL)

smiles data | quantity | val
CC(C)[C@@H](C)[C@@]1(C)CC[C@]2(C)[C@H]3CC[C@@H]4[C@@]5(COC[C@@]4(C)[C@@H](OC[C@](C)(N)C(C)(C)C)[C@H](n4ncnc4-c4ccncc4)C5)C3=CC[C@@]2(C)[C@@H]1C(=O)O | concentration at 24 h | 294

###

assay type: in vivo, human; conditions: both, human, plasma, oral, 4 mg
quantity: Tmax (min)

molecule | val
CN(CCOc1ccc(CC2SC(=O)NC2=O)cc1)c1ccccn1 (stereo not shown) | 30
